- tgt: SSTR5 (Homo sapiens, UniProt P35346)
- Sequence (P35346 whole entry): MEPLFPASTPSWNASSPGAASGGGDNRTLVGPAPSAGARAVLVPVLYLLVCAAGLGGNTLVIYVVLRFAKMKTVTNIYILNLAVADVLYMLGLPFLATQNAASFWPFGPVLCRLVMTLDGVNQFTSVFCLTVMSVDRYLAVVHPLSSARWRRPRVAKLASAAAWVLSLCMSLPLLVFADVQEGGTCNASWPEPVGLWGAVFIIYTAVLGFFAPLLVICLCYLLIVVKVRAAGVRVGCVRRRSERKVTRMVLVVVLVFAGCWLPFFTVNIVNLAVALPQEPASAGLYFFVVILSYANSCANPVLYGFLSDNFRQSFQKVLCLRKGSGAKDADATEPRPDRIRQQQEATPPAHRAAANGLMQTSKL
- assay method text: SSTR5 agonist potency
pEC50: −log10 of the molar value.
assay endpoint: pEC50

Query: GET /values?readout=pEC50&system=SSTR5 (Homo sapiens, UniProt P35346)&item= C[C@H](NC(=O)c1cnc(C#N)c(-c2cc(F)cc(F)c2)c1N1CC[C@H](N)C1)C(F)(F)F [Compound 1]
Result: > 9.00
